# melting point annotations

# return recorded melting point for entry CC1(C)CC[C@]2(C(=O)OCc3ccc(C#N)cc3)CC[C@]3(C)C(=CC[C@@H]4[C@@]5(C)CC[C@H](O)[C@@](C)(C=O)[C@@H]5CC[C@]43C)[C@@H]2C1
175 to 177 °C

# return recorded melting point for entry CC1(C)CC[C@]2(C(=O)OCc3cc(F)cc(F)c3)CC[C@]3(C)C(=CC[C@@H]4[C@@]5(C)CC[C@H](O)[C@@](C)(C=O)[C@@H]5CC[C@]43C)[C@@H]2C1
58 to 60 °C

# return recorded melting point for entry COc1ccc(COC(=O)[C@]23CCC(C)(C)C[C@H]2C2=CC[C@@H]4[C@@]5(C)CC[C@H](O)[C@@](C)(C=O)[C@@H]5CC[C@@]4(C)[C@]2(C)CC3)cc1
78 to 80 °C

# return recorded melting point for entry CC1(C)CC[C@]2(C(=O)OCc3cc(C(F)(F)F)cc(C(F)(F)F)c3)CC[C@]3(C)C(=CC[C@@H]4[C@@]5(C)CC[C@H](O)[C@@](C)(C=O)[C@@H]5CC[C@]43C)[C@@H]2C1
85 to 87 °C

Lab note: next molecule to report on.
# return recorded melting point for entry CC1(C)CC[C@]2(C(=O)OCc3ccc(C(F)(F)F)cc3)CC[C@]3(C)C(=CC[C@@H]4[C@@]5(C)CC[C@H](O)[C@@](C)(C=O)[C@@H]5CC[C@]43C)[C@@H]2C1
175 to 177 °C
